B1: TPR t1 (parent)
chain: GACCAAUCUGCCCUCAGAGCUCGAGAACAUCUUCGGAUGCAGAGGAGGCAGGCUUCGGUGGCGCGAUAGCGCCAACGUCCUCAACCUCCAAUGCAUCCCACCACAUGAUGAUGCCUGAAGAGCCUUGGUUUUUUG

variants of: B1; assay: polymerase ribozyme fitness, log enrichment relative to wild type (log ratio); higher = more active; in vitro selection for triplet polymerase activity
observedProperty: polymerase ribozyme fitness (log ratio)

Below are worked cases with known answers.
{"biopolymerSequence": "GACCAAUCUGCCCUCAGAGCUCGAGAACAUCUUCGGAUGCAGAGGAGGCAGGCUUCGGUAGCGCGAUAGCGCCAACGUACUCAUCCUCCAAUGCAUCCCACCACAUGAUGAUGCCUGAAGAGCCUUGGUUUUUUG [G60A C79A A84U]", "polymerase ribozyme fitness (log ratio)": -2.32}
{"biopolymerSequence": "GACCAAUCUGUCCUCUGAGCUCGAGUACAUCUUCGGAUGCAGAGGAGGCAGGCUUCGGUGGAGCGAUAGCGCCAACGUCCUCAACCUCCAAUGCAUCCCACCACAUGAUGAUGCCUGAACAGCCUUGGUUUUUUG [C11U A16U A26U C62A G120C]", "polymerase ribozyme fitness (log ratio)": -5.1}
{"biopolymerSequence": "GACCAAUCUGCCCUCAGAGCUCGAGAACAUCUUCGGAUGCAGAGGAGGCAGGCUUCGGUGGCCCGAUAGCGCCAACGUCCUCAACUUCCAAUGCAUCCCACCACAUGAUGAAGCCUGAAGAGCCUUGGUUUUUUG [G63C C86U U112A]", "polymerase ribozyme fitness (log ratio)": 0.23}

Fill blank: measured polymerase ribozyme fitness (log ratio) of the variant GACCAAUCUGCCCUCAGAGCUCGGGAACAUCUUCGGAUGCAGAGGAGGCAGGCUUCGUUGCCGCGAUAGCGCCAACGUCCUCAACCUCCAAUGCAUCCCACCACAUGAUGAUGCCUGAAGAGCCUUGGUUUUUUG [A24G G58U G61C] is ____.
-1.68

Fill blank: measured polymerase ribozyme fitness (log ratio) of the variant GACCAAUCUGCCCUCAGAGCUCGAGAACAUCUUCGGAUGCAGAGGAGGUAGGCUUUGGUGGCGCGAUAGCGGCAACGUCCUCAACCUCCAAUGCAUCCCAGCACAUGAUGAUGCCUGAAGAGCCUUGGUUUUUUG [C49U C56U C72G C101G] is ____.
-3.7

Fill blank: measured polymerase ribozyme fitness (log ratio) of the variant GACCAAUCUGCCCUCAGAGCUCGAGAACAUCUUCGGAUGCAGUGGAGGCAGGCUUCGGUGGCCCGAUAGCGCCAACGCCCUCAACCUCCAAUGCAUCCCACCACAUGAUGAUGCCUGAAGAGCCUUGGUUUUUUG [A43U G63C U78C] is ____.
-3.61

Fill blank: measured polymerase ribozyme fitness (log ratio) of the variant GACCAAUCUGCCCUCAGAGCUCGAGAACAUCUUCGGAUGCAGAGGAGGCAGGCUUCGGUGGCGCGAUAGUGCCAACGGCCUCAACCUCCAAUGCAUCCCACCACAUGAUGAUGCCUGAAGAGCCUUGGUUUUUUG [C70U U78G] is ____.
-0.747

Fill blank: measured polymerase ribozyme fitness (log ratio) of the variant GACCAAUCUGCCCUCAGAGCUCGAGAACAUCUUCGGACGCAAAGGAGGCAGGCUUCGGUGGCGCGAUAGCGCCAACGUCCUCAACCUCCAAUGCAUCCCACCACAUGAUGAUGCCUGUAGAACCUUGGUUUUUUG [U38C G42A A118U G122A] is ____.
-3.31

Fill blank: measured polymerase ribozyme fitness (log ratio) of the variant GACCAAUCUGCCCUCAGACCUCGAGAACAUCUUCGGAUACAGAGGAGGCAGGAUUCGGUGGCGCGAUAGCGCCAAUGUCCUCAACCUCCAAUGCAUCCCACCACAUGAUGAUGCCUGAAGAGCCUUGGUUUUUUG [G19C G39A C53A C76U] is ____.
-3.34

Fill blank: measured polymerase ribozyme fitness (log ratio) of the variant GACCAAUCUGGCCUCAGAGCUCGAGAACAUCUUCGGAUGCAGAGGUGGCAGGCUUUGGUGGCGCGAUAGAGCCAACGUCCUCAAACUCCAAUGCAUCCCACCAUAUGAUGAUGCCUGAAGAGCCUUGGUUUUUUG [C11G A46U C56U C70A C85A C104U] is ____.
-6.28

// data source = the RNAGym collection of RNA variant scans (doi:10.1073/pnas.2313332121)
